Cited source: paper PMC9923724

# Test system: vancomycin-resistant Enterococcus (VRE) clinical isolates
# MEASUREMENT_NOTES: Broth microdilution MIC, clinical VRE isolates
# Type: cell-based, E. faecium
# SETUP_CONDITIONS: clinical isolate 27 085, wound, 2018
RECORDED_ENDPOINT: MIC, VRE 27 085

Some entries whose results are on file:
compound="CCCCCCCC(=O)OCC1OC(n2cc(-c3ccccn3)nn2)C(OC(=O)CCCCCCC)C(OC(=O)CCCCCCC)C1OC(=O)CCCCCCC.Cc1ccc(C(C)C)cc1.F[P-](F)(F)(F)(F)F.[Cl][Os+] (mixture of isomers)" measured_result="40< µM"
compound="CCCCCCC(=O)OCC1OC(n2cc(-c3ccccn3)nn2)C(OC(=O)CCCCCC)C(OC(=O)CCCCCC)C1OC(=O)CCCCCC.Cc1ccc(C(C)C)cc1.F[P-](F)(F)(F)(F)F.[Cl][Os+] (mixture of isomers)" measured_result="40< µM"

Returns the measured MIC, VRE 27 085 for the input compound. Input: Cc1c(C)c(C)[c-](C)c1C.F[P-](F)(F)(F)(F)F.O=C(OCC1OC(n2cc(-c3ccc4ccccc4n3)nn2)C(OC(=O)c2ccccc2)C(OC(=O)c2ccccc2)C1OC(=O)c1ccccc1)c1ccccc1.[Cl][Ir+2] (mixture of isomers)
40< µM
